All figures here come from PubChem BioAssay (NCATS).

Test system: NIH3T3
Protocol Notes: Cytotoxic Profiling of Annotated Libraries Using Quantitative High-Throughput Screening (AID 1296008); note: % is set by controls: 0 for no effect and ±100 for the full control effect; nearly all actives have a fitted effect of over 60% in size
Experimental Context: Five cell lines viability, CellTiter-Glo ATP luminescence, 48-72 h; active compounds read low
Description: Cell-based phenotypic screening is a commonly used approach to discover biological pathways, novel drug targets, chemical probes and high-quality hit-to-lead molecules. […] A pintool (Kalypsys) was used to transfer 23 nL of compound solution to the 1536-well assay plates. […] Plates were left at room temperature for 10 min before imaging the ATP-coupled luminescence using a ViewLux microplate imager (PerkinElmer, Waltham, MA).
Results filed as inconclusive are left out. Calls of active or inactive are those of the source. Calls come from the whole dose curve; as a rule, active = well fitted inhibition curve with a large enough effect; inconclusive = small, poorly fitted or top-dose-only effect; inactive = flat fitted curve, though single readings scatter. *1 amine or outer side, *2 acyl side, *3 side chain or, on linkers, in order; H or OH if unused. Where a SMILES comes first, the peptide text is derived from it. [ ]: non-standard residue; d: D form. The star is where a group is joined. ξ: configuration not given here. X9 = CCC(C)(N*)C(=O)C1CC[C@@H](C(=O)N[C@@H](Cc2ccccc2)C(=O)NCC(=O)O)N1; X8 = O=C([C@@H]1CC(O)CN1[*:1])[*:2]; aIle = CC[C@@H](C)[C@H](N)C(=O)O; Thr(3ξ) = CC(O)[C@H](N)C(=O)O; ξIva = CCC(C)(N)C(=O)O; Aib = CC(C)(N)C(=O)O
Experimental Readout: max response

INSERT INTO measurements (compound, experimental_readout, val) VALUES
  ('CC1=C2CC(=O)C(C)CC/C=C(\C)CC2OC1=O (stereo not given)', 'max response', '2.98% (inactive)'),
  ('CCc1cc(CC[C@]2(C3CCCC3)CC(O)=C(Cc3nc4nc(C)cc(C)n4n3)C(=O)O2)cc(CC)n1', 'max response', '-7.94% (inactive)'),
  ('COC(=O)C(CC1(OC(=O)C(C)C)c2ccccc2N2C(=O)C(C)(C)N(O)C21)n1cnc2ccccc2c1=O (stereo not given)', 'max response', '-14.6% (inactive)'),
  ('O=C(O[C@H]1[C@H](Oc2ccc(O)cc2CO)O[C@H](CO)[C@@H](O)[C@@H]1O)c1ccccc1', 'max response', '2.07% (inactive)'),
  ('CC1CC(=O)[C@]2(O)C(C(=O)OCCc3ccc(O)cc3)=CO[C@@H](O[C@@H]3O[C@H](CO)[C@@H](O)[C@H](O)[C@H]3O)[C@H]12 (stereo not given in full)', 'max response', '-59.3% (inactive)'),
  ('CC1=CCC(O)C2(C)CCC3C(C)C(=O)OC3C12 (stereo not given)', 'max response', '-0.383% (inactive)'),
  ('O=C(O)CC1(O)C(=O)Nc2ccccc21 (stereo not given)', 'max response', '3.37% (inactive)'),
  ('CC[C@@H](C)[C@H](NC(=O)C(C)(C)NC(=O)[C@H](CCC(N)=O)NC(=O)C(C)(CC)NC(=O)[C@H](Cc1c[nH]c2ccccc12)NC(C)=O)C(=O)N[C@H](C(=O)NC(C)(C)C(=O)N[C@@H](CC(C)C)C(=O)NC(C)(C)C(=O)N1CCC[C@H]1C(=O)N[C@@H](CCC(N)=O)C(=O)NC(C)(C)C(=O)N1CC(O)C[C@H]1C(=O)NC(C)(CC)C(=O)C1CC[C@@H](C(=O)N[C@@H](Cc2ccccc2)C(=O)NCC(=O)O)N1)C(C)O (stereo not given in full) (Ac-W[ξIva]Q[Aib][aIle][Thr(3ξ)][Aib]L[Aib]PQ[Aib][X8]-X9)', 'max response', '-1.9% (inactive)'),
  ('COC(=O)C[C@H]1C(C)(C)[C@H](OC(=O)C(C)C)C2CC3=C4CC(=O)O[C@@H](c5ccoc5)[C@]4(C)CCC3[C@@]1(C)C2=O (stereo not given in full)', 'max response', '1.73% (inactive)'),
  ('C[C@H]1CC[C@@]2(OC1)O[C@H]1CC3C4CC[C@H]5C[C@@H](O)CC[C@]5(C)C4CC(=O)[C@]3(C)[C@H]1[C@@H]2C (stereo not given in full)', 'max response', '3.42% (inactive)');
